Origin of the recorded values: PubChem BioAssay (NCI)

Tested on: SN12C renal
assay-overview: NCI-60 one-dose screen, 48 h
study-conditions: 10 µM
Compounds without any hit were thinned out: in the full panel of roughly 83,000, 20% have a hit. Calls of active or inactive are those of the source. How the source made its calls: active means growth percent below 10; inactive means the rest.
Response enum: active, inactive

# example entries with known answers
Cc1cc(/C=C/c2ccc3cc(N(C)C)ccc3[n+]2C)c(C)n1-c1ccccc1 :: active
O=C(CN1CCNCC1)N1CCOCC1 :: inactive
CCC(C)(O)c1ccc(C)cc1 (stereo unspecified) :: inactive
O=C(O)c1cccc([N+](=O)[O-])c1O :: inactive
C[N+](C)(C)C(=O)c1ccccc1 :: inactive
C=CCNc1nnc(C)s1 :: inactive

Qu. # fetch the recorded call for O=C(Nc1ccccc1C(=O)NCC1CC1)c1cccs1 here
Ans. inactive

Qu. # fetch the recorded call for CCCCC/C=N/Nc1nc(C)cc(=O)[nH]1 here
Ans. inactive

* * *

Test system: SN12C renal
assay-overview: NCI-60 one-dose screen, 48 h (100 = growth as untreated, 0 = no growth, -100 = all killed)
study-conditions: 10 µM
The panel holds about 83,000 compounds, 20% with a hit somewhere; the sample as a whole holds those more often.
# growth listing for each entry below
Please reply with the bare figure in % and do not write the unit itself.

Solved entries (count: 6):
Nc1nc2c(c(-c3nc(N)nc4c3CCc3ccccc3-4)n1)CCc1ccccc1-2 :: 102
Oc1ccc2c(c1)OCC1(O)Cc3cc(O)c(O)cc3C21 (configuration not stated) :: 100
COC(=O)c1ccc(NC(=O)CCl)cc1 :: 76.6
COC(=O)C(C)Oc1ccc(OC#N)cc1 (configuration not stated) :: 91.8
O=C(CS)Nc1ccc2ccccc2c1 :: 101
COc1ccc(/C(C#N)=C2C=C/C(=N/O)c3ccccc3\2)cc1 :: 23.7

Let us examine a further case.
Qu. growth for O=C(O)C(Cc1ccccc1)C(=O)O ?
Ans. 103

* * *

Tested on: NCI/ADR-RES ovarian
assay-overview: NCI-60 one-dose screen, 48 h (100 = growth as untreated, 0 = no growth, -100 = all killed)
study-conditions: 10 µM
Compounds without any hit were thinned out: in the full panel of roughly 83,000, 20% have a hit.
# growth listing for each entry below
Please reply with the bare figure in % and do not write the unit itself.

Solved entries (count: 5):
C=CC[N+](C)(C)C :: 105
CN(C)/N=C/c1ccccc1O :: 115
N#CSc1cc(S(N)(=O)=O)ccc1N :: 108
COC(=O)Nc1nc2ccc(C(=O)c3ccc(F)cc3)cc2[nH]1 :: -5.09
C=CCOC(=O)C(=O)OCC=C :: 117

Qu. growth for CC(=O)OCC1OC(OC2=C(CC=C(C)C)C(=O)c3ccccc3C2=O)C(OC(C)=O)C(OC(C)=O)C1OC(C)=O (configuration not stated) ?
Ans. 32.4

Qu. growth for C/C(=C\c1cc(Cl)ccc1OCC(=O)O)[N+](=O)[O-] ?
Ans. 102

Qu. growth for CC(=O)Cc1ccc(-c2ccccc2)cc1 ?
Ans. 103

Qu. growth for O=C(/C=C\c1ccc(O)cc1)c1ccccc1 ?
Ans. 101

* * *

# growth listing for each entry below
System: T-47D breast
assay-overview: NCI-60 one-dose screen, 48 h (100 = growth as untreated, 0 = no growth, -100 = all killed)
study-conditions: 10 µM
Description: Growth inhibition of the T-47D human tumor cell line is measured as a screen for anti-cancer activity. Cells are grown in 96 well plates and exposed to the test compound for 48 hours. Compounds are tested at a single concentration, which is 10^-5 M for most compounds. The reported endpoint is percent growth (GI% or GIPRCNT), where numbers from 0 - 100% represent growth inhibition, and numbers from -100% - 0 represent cell death. For example, a value of 40 represents 60% growth inhibition. […]
The panel holds about 83,000 compounds, 20% with a hit somewhere; the sample as a whole holds those more often.
Please reply with the bare figure in % and do not write the unit itself.

Solved entries (count: 4):
NC(C(=O)O)C(O)c1ccco1 (stereo unspecified) :: 98
C=C1CC/C=C(\C)C(=O)C[C@@H]2[C@@H]1CC2(C)C :: 94.6
COc1cccc(Sc2ccc([N+](=O)[O-])c3no[n+]([O-])c23)c1 :: 40.2
O=C(O)c1cccc([N+](=O)[O-])c1O :: 101

Qu. growth for COc1cc2nn(-c3ccccc3N)nc2cc1OC ?
Ans. 93.6

Qu. growth for COc1ccc(C(O)c2ccccc2)cc1 (stereo unspecified) ?
Ans. 87.3

Qu. growth for O=c1[nH][nH]c(=O)c2cc([N+](=O)[O-])ccc12 ?
Ans. 96.1

* * *

Test system: HCC-2998 colon
assay-overview: NCI-60 one-dose screen, 48 h
study-conditions: 10 µM
Compounds without any hit were thinned out: in the full panel of roughly 83,000, 20% have a hit. The source made the active and inactive calls. The calls were made as follows: active = growth percent below 10; inactive = the rest.
Response enum: 1 (yes) for active, 0 (no) for inactive

# example entries with known answers
O=C(Cc1ccccc1)Cc1ccccc1 :: 0 (no)
O=C1c2ccccc2C(=O)c2c1ccc(C(=O)O)c2[N+](=O)[O-] :: 0 (no)
CN(C)c1ccc(C(c2ccc(O)cc2)c2ccc(N(C)C)cc2)cc1 :: 0 (no)
CCOC(=O)CNN :: 0 (no)
COc1ccc(C(=O)C(Br)C(Br)C(=O)O)cc1 (stereo not drawn) :: 0 (no)

Qu. # fetch the recorded call for Nc1ccc(CC(=O)O)c(N)c1 here
Ans. 0 (no)

Qu. # fetch the recorded call for COc1cccc(COC(=O)Nc2ccccc2)c1OC here
Ans. 0 (no)

Qu. # fetch the recorded call for Nc1ncnc2c1nc(N)n2C1OC(CO)C(O)C1O (stereo not drawn) here
Ans. 1 (yes)

* * *

System: A498 renal
assay-overview: NCI-60 one-dose screen, 48 h
study-conditions: 10 µM
The panel holds about 83,000 compounds, 20% with a hit somewhere; the sample as a whole holds those more often. The source made the active and inactive calls. How the source made its calls: active means growth percent below 10; inactive means the rest.
Response enum: True = active, False = inactive

# example entries with known answers
O=P(O)(O)OCC(O)CO (configuration not stated) :: False
COc1nc(N)nc2c1ncn2C1OC(CO)CC1O (configuration not stated) :: False
Nc1nc(N)c(N=Nc2ccc(C(=O)O)cc2)c(N)n1 :: False
O=[N+]([O-])c1ccc(Cl)c(S(=O)(=O)O)c1 :: False
Nc1ncnc2c1nc(N)n2C1OC(CO)C(O)C1O (configuration not stated) :: True
CCc1nc(N)nc(N)c1-c1ccc(Cl)cc1 :: False
CC1CC(O)CC(C)(C)C1 (configuration not stated) :: False
CC1C(=O)c2ccccc2CC1C(=O)O (configuration not stated) :: False

Qu. # fetch the recorded call for CC(=O)N(C)c1ccc([N+](=O)[O-])cc1 here
Ans. False

Qu. # fetch the recorded call for COc1cc(C2c3cc4c(cc3C3OC(=O)C2C3CO)OCO4)cc(OC)c1OC (configuration not stated) here
Ans. True

Qu. # fetch the recorded call for COc1ccc(C(O)c2ccccc2)cc1 (configuration not stated) here
Ans. False

Qu. # fetch the recorded call for CCCC[P+](c1ccccc1)(c1ccccc1)c1ccccc1 here
Ans. False

Qu. # fetch the recorded call for CC(=O)OCC1OC(OC2=C(CC=C(C)C)C(=O)c3ccccc3C2=O)C(OC(C)=O)C(OC(C)=O)C1OC(C)=O (configuration not stated) here
Ans. False

Qu. # fetch the recorded call for Cc1ccccc1C1N=C2Oc3ccccc3C=C2C(=O)N1 (configuration not stated) here
Ans. True

Qu. # fetch the recorded call for CCC/C=C(/C(C)=O)C(=O)OCC here
Ans. False

Qu. # fetch the recorded call for C/C(=C\c1ccc([N+](=O)[O-])cc1)C(=O)O here
Ans. False

Qu. # fetch the recorded call for CCC/C=C(\C)C(C)(C#N)C(=O)OCC (configuration not stated) here
Ans. False

* * *

Test system: HCT-15 colon
assay-overview: NCI-60 one-dose screen, 48 h
study-conditions: 10 µM
Compounds without any hit were thinned out: in the full panel of roughly 83,000, 20% have a hit. The source made the active and inactive calls. Rule for the calls: active = growth percent below 10; inactive = the rest.
Response enum: t = active, f = inactive

O=C(NCCNC(=O)c1ccc(Cl)cc1Cl)c1ccc(Cl)cc1Cl :: f
COc1cc2nn(-c3ccccc3N)nc2cc1OC :: f
COc1cc(CN)ccc1O :: f

Qu. # fetch the recorded call for O=S(=O)(O)C(Nc1ccccc1)c1ccccc1 (stereo unspecified) here
Ans. f

Qu. # fetch the recorded call for CCOC(=O)C/C(C)=N\O here
Ans. f

Qu. # fetch the recorded call for c1cc[n+](C2c3ccccc3C([n+]3ccccc3)c3ccccc32)cc1 (stereo unspecified) here
Ans. f

Qu. # fetch the recorded call for C#CC(C(C)C)N(CCO)CCCC (stereo unspecified) here
Ans. f

Qu. # fetch the recorded call for CCOC(=O)/C(=C/c1ccc(OC)cc1)N(CC)CC here
Ans. f

Qu. # fetch the recorded call for O=C1OC(c2ccc(F)cc2)CC1CN1CCOCC1 (stereo unspecified) here
Ans. f

Qu. # fetch the recorded call for O=C(c1ccc(O)cc1)c1ccc(O)cc1 here
Ans. f

Qu. # fetch the recorded call for Cc1cc(N2CCC(N3CCCC3)CC2)nc(/N=C(\N)Nc2ccc(Cl)c(Cl)c2)n1 here
Ans. t
